# SYSTEM_TESTED: L type Ca^2+
# EXPERIMENT_SUMMARY: Radioligand binding, cardiovascular-related targets
# ASSAY_CONTEXT: antagonism of radioligand binding; read-out: IC50 or EC50
pIC50: −log10 of the molar value.
OBSERVED_PROPERTY: pIC50

[ask] Need pIC50 of `N#C[C@@H]1C[C@@H]2C[C@@H]2N1C(=O)[C@@H](N)C12CC3CC(CC(O)(C3)C1)C2` , thanks.
[reply] < 4.60
